Target: LIFR (Homo sapiens, UniProt P42702)
Construct: expressed in transfected cells; host or cells: HepG2
Sequence (P42702 45-1097): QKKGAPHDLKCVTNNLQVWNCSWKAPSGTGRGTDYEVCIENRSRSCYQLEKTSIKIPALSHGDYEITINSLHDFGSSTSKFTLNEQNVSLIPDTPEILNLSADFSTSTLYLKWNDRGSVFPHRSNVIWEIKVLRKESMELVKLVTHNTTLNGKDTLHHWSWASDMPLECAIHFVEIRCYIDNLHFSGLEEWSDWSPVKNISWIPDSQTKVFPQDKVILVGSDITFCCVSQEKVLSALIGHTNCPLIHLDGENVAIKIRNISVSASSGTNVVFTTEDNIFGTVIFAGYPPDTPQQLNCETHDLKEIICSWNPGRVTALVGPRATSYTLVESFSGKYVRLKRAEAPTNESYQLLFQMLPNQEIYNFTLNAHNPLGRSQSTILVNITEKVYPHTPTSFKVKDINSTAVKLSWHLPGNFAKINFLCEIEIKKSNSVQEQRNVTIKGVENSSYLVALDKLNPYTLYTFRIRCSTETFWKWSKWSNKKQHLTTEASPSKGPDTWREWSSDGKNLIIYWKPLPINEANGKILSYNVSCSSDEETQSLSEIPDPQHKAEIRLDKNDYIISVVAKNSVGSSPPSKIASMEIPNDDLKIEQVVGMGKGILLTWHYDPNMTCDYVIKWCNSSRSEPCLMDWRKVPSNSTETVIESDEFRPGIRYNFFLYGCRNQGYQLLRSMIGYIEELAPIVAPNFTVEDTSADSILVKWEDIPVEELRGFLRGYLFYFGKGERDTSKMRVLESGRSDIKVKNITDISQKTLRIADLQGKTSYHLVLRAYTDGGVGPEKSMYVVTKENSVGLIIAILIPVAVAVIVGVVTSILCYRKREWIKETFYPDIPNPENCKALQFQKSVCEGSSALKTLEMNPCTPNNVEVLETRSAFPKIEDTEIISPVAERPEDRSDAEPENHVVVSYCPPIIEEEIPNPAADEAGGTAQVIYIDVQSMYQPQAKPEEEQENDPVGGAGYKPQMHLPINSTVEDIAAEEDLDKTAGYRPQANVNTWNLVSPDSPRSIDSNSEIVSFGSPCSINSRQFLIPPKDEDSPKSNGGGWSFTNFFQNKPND
Assay: Luciferase reporter (transactivation) assay on HepG2 cells transfected with LIFR
Format: cell-based
Conditions: relative to LIF as 100%, mean ± SD
EXPERIMENTAL ENDPOINT: inhibition at 10 µM (%)
Please reply with the bare figure in % and do not write the unit itself.

# example entries with known answers
C[C@]12C[C@H](c3ccc(-c4ccc(Br)nc4)cc3)C3=C4CCC(=O)C=C4CC[C@H]3[C@@H]1CCC2=O = 88.8
COc1ccc(C[C@H]2C[C@]3(C)C(=O)CC[C@H]3[C@@H]3CCC4=CC(=O)CCC4=C23)cc1 = 92

Query :: What does the record list as inhibition at 10 µM for C[C@]12C[C@H](c3ccc(C4CC4)cc3)C3=C4CCC(=O)C=C4CC[C@H]3[C@@H]1CCC2=O ?
Result :: 51.1

Query :: Also, C[C@]12C[C@H](c3ccc(I)cc3)C3=C4CCC(=O)C=C4CC[C@H]3[C@@H]1CCC2=O please.
Result :: 89.9
